molecular target: AtHESPERIN (Hesperin) (Arabidopsis thaliana); construct: HESPERIN cDNA in pATHRA (pET-15b derived), E. coli BL21-GOLD(DE3); N-terminal 6xHis tag cut by HRV 3C protease; SEC; oligomer, mainly trimer (~150 kDa); experiment: colorimetric methylene blue poly(A) degradation assay, modified Hanes-Woolf plot; settings: substrate poly(A); Buffer R with 2 mM MgCl2, 0.1 M NaCl, pH 6.5, 25 °C; competitive, reaction product
Sequence (A8MS41 whole entry): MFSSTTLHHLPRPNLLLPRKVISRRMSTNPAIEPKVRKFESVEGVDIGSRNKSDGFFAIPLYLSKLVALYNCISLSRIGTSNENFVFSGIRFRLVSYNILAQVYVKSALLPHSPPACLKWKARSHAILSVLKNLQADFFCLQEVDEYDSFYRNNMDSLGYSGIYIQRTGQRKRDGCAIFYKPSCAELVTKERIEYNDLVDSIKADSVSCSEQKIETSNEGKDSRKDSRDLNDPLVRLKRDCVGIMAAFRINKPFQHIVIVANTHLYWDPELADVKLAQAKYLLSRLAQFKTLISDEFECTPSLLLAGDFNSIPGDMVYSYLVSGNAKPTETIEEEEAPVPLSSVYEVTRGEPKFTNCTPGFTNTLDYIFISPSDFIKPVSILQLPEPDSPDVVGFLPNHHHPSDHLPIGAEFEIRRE
Result type: Ki (nM)
Only the number, expressed in nM, is required.

Asked: Form: Entry = `Nc1ncnc2c1ncn2[C@@H]1O[C@H](COP(=O)(O)O)[C@@H](O)[C@H]1O` | System = AtHESPERIN (Hesperin) (Arabidopsis thaliana) | Ki = ____
Given back: 1800
